The reported numbers originate from patent US20250346644A1.

# key: entry, value: Kd
# TARGET_DESC: T1, hIL2-DM-his (human, UniProt P60568 21-153)
# T1 construct: expressed in ExpiCHO-S cells, nickel-column purified; also called hIL-2 mutein containing two point mutations K64G and N90R (with a his-tag); not shown: his-tag
# ASSAY_OVERVIEW: BLI ForteBio, Ab on Protein A sensor

BINDER	UNITS_TEXT	Kd
K1G8 (antibody, V domains shown) VH: QVQLVQSGAEVKKPGATVKISCKVSGDTITAYYMHWVRQAPGQGLEWIGRIDPEDDSTKYAENFKGRVTITADTSTDTAYMELSSLRSEDTAVYYCTTITFLYSRELRWFAYWGQGTLVTVSS VL: DIVLTQSPATLSLSPGERATLSCQASQYISNYLSWYQQKPGQAPRLLIYQATSLASGIPARFSGSRSGTDFTLTISSLEPEDFAVYYCLQHYSTPYTFGQGTKLEIK	nM	0.778
K3G4 (antibody, V domains shown) VH: QVQLVQSGAEVKKPGATVKISCKVSGDTITAYYMHWVRQAPGQGLEWIGRIDPEDDSTKYAENFKGRVTITADTSTDTAYMELSSLRSEDTAVYYCTTVTFLYSRELRWFAYWGQGTLVTVSS VL: DIVLTQSPATLSLSPGERATLSCQASQYIGNYLSWYQQKPGQAPRLLIYQATSLASGIPARFSGSRSGTDFTLTISSLEPEDFAVYYCLQHYSTPYTFGQGTKLEIK	nM	3
K3G2 (antibody, V domains shown) VH: QVQLVQSGAEVKKPGATVKISCKVSGDTITAYYMHWVRQAPGQGLEWIGRIDPEDDSTKYAENFKGRVTITADTSTDTAYMELSSLRSEDTAVYYCTTITFYYSRELRWFAYWGQGTLVTVSS VL: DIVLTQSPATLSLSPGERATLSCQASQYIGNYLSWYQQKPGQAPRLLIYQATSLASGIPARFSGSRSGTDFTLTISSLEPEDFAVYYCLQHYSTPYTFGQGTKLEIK	nM	2.91
